Ref: patent US20210087281A1

Below, each entry is listed alongside its reported EMAX.
target: T1, native human MET on living cells (human, UniProt P08581 25-1390); assay: flow cytometry, A549 cells
T1 construct: whole, on cells; also called Human cells (A549); HPAF-II
T1 sequence (P08581 25-1390): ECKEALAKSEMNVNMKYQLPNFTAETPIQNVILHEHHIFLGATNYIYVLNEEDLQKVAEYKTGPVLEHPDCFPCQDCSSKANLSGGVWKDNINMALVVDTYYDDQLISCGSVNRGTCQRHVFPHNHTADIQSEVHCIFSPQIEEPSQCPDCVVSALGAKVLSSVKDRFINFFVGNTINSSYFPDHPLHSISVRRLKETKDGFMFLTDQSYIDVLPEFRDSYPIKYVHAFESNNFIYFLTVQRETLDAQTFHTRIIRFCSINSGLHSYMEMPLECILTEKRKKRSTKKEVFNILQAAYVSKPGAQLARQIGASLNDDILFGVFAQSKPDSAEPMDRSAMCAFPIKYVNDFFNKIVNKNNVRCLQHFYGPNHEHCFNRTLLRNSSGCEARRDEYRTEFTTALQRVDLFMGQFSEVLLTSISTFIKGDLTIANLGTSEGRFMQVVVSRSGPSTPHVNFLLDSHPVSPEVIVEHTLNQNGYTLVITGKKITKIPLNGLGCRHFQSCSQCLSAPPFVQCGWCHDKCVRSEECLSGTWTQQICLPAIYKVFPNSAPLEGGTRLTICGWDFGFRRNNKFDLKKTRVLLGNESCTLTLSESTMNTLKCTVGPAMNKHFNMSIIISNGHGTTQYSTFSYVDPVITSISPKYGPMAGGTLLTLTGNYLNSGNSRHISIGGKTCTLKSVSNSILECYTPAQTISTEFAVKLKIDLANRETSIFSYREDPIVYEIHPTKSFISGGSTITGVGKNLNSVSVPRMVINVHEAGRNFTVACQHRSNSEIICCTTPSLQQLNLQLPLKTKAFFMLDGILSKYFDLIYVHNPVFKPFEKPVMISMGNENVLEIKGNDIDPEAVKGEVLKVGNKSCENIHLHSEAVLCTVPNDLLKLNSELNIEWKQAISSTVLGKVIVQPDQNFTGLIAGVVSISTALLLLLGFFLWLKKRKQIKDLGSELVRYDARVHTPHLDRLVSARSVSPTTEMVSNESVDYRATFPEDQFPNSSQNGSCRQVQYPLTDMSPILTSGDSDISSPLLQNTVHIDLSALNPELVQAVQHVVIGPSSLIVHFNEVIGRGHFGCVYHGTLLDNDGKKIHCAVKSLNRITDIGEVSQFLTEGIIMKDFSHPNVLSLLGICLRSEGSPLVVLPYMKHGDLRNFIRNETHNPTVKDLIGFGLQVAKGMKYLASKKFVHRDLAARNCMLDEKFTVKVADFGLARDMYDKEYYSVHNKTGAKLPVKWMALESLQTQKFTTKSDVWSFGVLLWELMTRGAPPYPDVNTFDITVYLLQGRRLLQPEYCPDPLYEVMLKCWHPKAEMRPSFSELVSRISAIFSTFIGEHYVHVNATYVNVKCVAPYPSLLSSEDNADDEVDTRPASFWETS

Below: 3 binders and their reported EMAX.
binder	result_value
71D6 chimeric llama-human IgG1 mAb (antibody, V domains shown, llama VH on human IgG1 CH1-CH2-CH3, llama VL on human lambda CL) VH: ELQLVESGGGLVQPGGSLRLSCAASGFTFSSYGMSWVRQAPGKGLEWVSAINSYGGSTSYADSVKGRFTISRDNAKNTLYLQMNSLKPEDTAVYYCAKEVRADLSRYNDYESYDYWGQGTQVTVSS VL: QPVLNQPSALSVTLGQTAKITCQGGSLGARYAHWYQQKPGQAPVLVIYDDDSRPSGIPERFSGSSSGGTATLTISGAQAEDEGDYYCQSADSSGSVFGGGTHLTVL	113 % relative to control
71G12 chimeric llama-human IgG1 mAb (antibody, V domains shown, llama VH on human IgG1 CH1-CH2-CH3, llama VL on human kappa CL) VH: QVQLQESGGDLVQPGGSLRVSCVVSGFTFSRYYMSWVRQAPGKGLEWVSSIDSYGYSTYYTDSVKGRFTISRDNAKNTLYLQMNSLKPEDTALYYCARAKTTWSYDYWGQGTQVTVSS VL: EIVLTQSPSSVTASVGGKVTINCKSSQSVFIASNQKTYLNWYQQRPGQSPRLVISYASTRESGIPDRFSGSGSTTDFTLTISSVQPEDAAVYYCQQAYSHPTFGQGTKVELK	110 % relative to control
71G3 chimeric llama-human IgG1 mAb (antibody, V domains shown, llama VH on human IgG1 CH1-CH2-CH3, llama VL on human lambda CL) VH: QVQLVESGGGLVQPGGSLRVSCAASGFTFSTYYMSWVRQAPGKGLEWVSDIRTDGGTYYADSVKGRFTMSRDNAKNTLYLQMNSLKPEDTALYYCARTRIFPSGYDYWGQGTQVTVSS VL: QAVVTQEPSLSVSPGGTVTLTCGLSSGSVTTSNYPGWFQQTPGQAPRTLIYNTNSRHSGVPSRFSGSISGNKAALTIMGAQPEDEADYYCSLYPGSTTVFGGGTHLTVL	117 % relative to control

So what's the measured EMAX for this one? 71A3 chimeric llama-human IgG1 mAb (antibody, V domains shown, llama VH on human IgG1 CH1-CH2-CH3, llama VL on human lambda CL) VH: EVQLVESGGGLVQPGGSLRLSCAASGFSFKDYDITWVRQAPGKGLEWVSTITSRSGSTSYVDSVKGRFTISGDNAKNTLYLQMNSLKPEDTAVYYCAKVYATTWDVGPLGYGMDYWGKGTLVTVSS VL: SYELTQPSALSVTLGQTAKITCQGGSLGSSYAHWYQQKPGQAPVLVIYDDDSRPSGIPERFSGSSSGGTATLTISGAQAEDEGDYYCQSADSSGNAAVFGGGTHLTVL 161 % relative to control

So what's the measured EMAX for this one? 71D4 chimeric llama-human IgG1 mAb (antibody, V domains shown, llama VH on human IgG1 CH1-CH2-CH3, llama VL on human lambda CL) VH: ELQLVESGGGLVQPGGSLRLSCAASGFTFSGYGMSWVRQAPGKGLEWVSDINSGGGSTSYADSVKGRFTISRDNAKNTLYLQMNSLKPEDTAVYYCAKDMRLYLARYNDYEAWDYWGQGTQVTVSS VL: SSALTQPSALSVTLGQTAKITCQGGSLGSSYAHWYQQKPGQAPVLVIYDDDSRPSGIPERFSGSSSGGTATLTISGAQAEDEGDYYCQSADSSGNAAVFGGGTHLTVL 107 % relative to control
